For each record, write down the corresponding EC50.
Target: SSTR4 (Homo sapiens, UniProt P31391)
Construct: host or cells: CHO-K1
Sequence (P31391 whole entry): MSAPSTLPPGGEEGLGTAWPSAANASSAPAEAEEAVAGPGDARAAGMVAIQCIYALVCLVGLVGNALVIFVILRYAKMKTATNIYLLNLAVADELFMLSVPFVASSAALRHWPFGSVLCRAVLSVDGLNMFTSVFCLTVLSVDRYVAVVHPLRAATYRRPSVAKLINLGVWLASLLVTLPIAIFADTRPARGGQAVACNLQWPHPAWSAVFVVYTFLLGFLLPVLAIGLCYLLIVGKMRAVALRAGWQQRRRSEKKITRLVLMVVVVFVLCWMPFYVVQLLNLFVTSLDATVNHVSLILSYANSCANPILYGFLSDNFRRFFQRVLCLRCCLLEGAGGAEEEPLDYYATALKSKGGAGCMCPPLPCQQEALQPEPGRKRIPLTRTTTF
Experiment: Inhibition of forskolin stimulated cAMP in CHO-K1 cells overexpressing SSTR4
Type: cell-based
Conditions: read-out: SSTR4 Activity pEC50 (converted)
One number for each entry, in nM.

Solved cases (2 shown):
CN1CCC[C@H]1CC(=O)NC(C)(C)c1nccc2ccccc12    12.6
Cc1cccnc1OCC1(NC(=O)C[C@@H]2CCCN2C)CCCC1    200

Okay, next one:
[ask] Provide the reported EC50 (system: SSTR4 (Homo sapiens, UniProt P31391)) for "COc1c(F)cccc1C(C)(C)NC(=O)C[C@H]1CCCN1C"
[reply] 200

----------
Target: SSTR4 (Homo sapiens, UniProt P31391)
Construct: host or cells: CHO-K1
Experiment: SSTR4 I-125 somatostatin competition binding assay (CHO-K1 membranes)
Details: competition with I-125 somatostatin, membranes from CHO-K1 overexpressing SSTR4; read-out: SSTR4 Binding pIC50 (converted)
Please assign 0 (no) whenever IC50 is at or above 100 nM, and 1 (yes) whenever it is below.

CCN1CCCC1CC(=O)NC1(COc2ncccc2C)CC1 (centres unmarked)    0 (no)
CC(C)(NC(=O)CCN1CCC1)c1ccc(Cl)cc1    1 (yes)
CN1CCC[C@@H]1CC(=O)NC(C)(C)c1cc(Cl)ccc1Cl    0 (no)
CC[C@H](CN1CCC1)C(=O)NC(C)(C)c1cccc(F)c1 (single isomer, unassigned)    1 (yes)
CC[C@@H](CN1CCC1)C(=O)NC(C)(C)c1ccc(C)cc1 (single isomer, unassigned)    1 (yes)

Now for another entry.
[ask] In the record for Cc1cccc2c(C(C)(C)NC(=O)CC3NCCC3(F)F)nccc12 (centres unmarked) , is IC50 less than 100 nM?
[reply] 0 (no)

----------
Target: SSTR4 (Homo sapiens, UniProt P31391)
Construct: host or cells: CHO-K1
Assay: Inhibition of forskolin stimulated cAMP in CHO-K1 cells overexpressing SSTR4
Assay type: cell-based
Details: read-out: SSTR4 Activity pEC50 (converted)
Labelling: EC50 reported below 80 nM becomes TRUE; at or above becomes FALSE.

Cc1cccc2c(C(C)(C)NC(=O)C[C@H]3CCCCN3C)noc12 (single isomer, unassigned)    TRUE
CN1CCCC1CC(=O)NC(C)(C)COc1ncccc1C(F)(F)F (stereo not drawn)    TRUE
CC[C@@H](CN1CCC1)C(=O)N[C@H](c1ccccc1)C(F)F    TRUE
COc1ccccc1[C@@H](NC(=O)[C@H](CN1CCC1)C(C)C)C(F)F    TRUE
Cc1cccc(C(C)(C)NC(=O)C[C@H]2CCCN2C)c1F    FALSE
C[C@@H](C(=O)NC(C)(C)c1nccc2ccccc12)[C@@H]1CCCN1C (racemic)    TRUE
CC(C)(NC(=O)CCN1CCCC1)c1nccc2ccccc12    TRUE
CN1CCC[C@@H]1CC(=O)NC(C)(C)COc1ncccc1C(F)(F)F    TRUE

[ask] In plain terms, does CCN1CCCC1CC(=O)NC1(COc2ncccc2C)CCCC1 (stereo not drawn) come in under 80 nM for EC50?
[reply] FALSE

[ask] Hello, I'm reviewing records and need to know if EC50 of CN1CCC[C@@H]1CC(=O)NC(C)(C)[C@H]1CCc2ccccc2O1 (single isomer, unassigned) is below 80 nM. Could you check?
[reply] FALSE

[ask] Record O=C(CCN1CCC1)N[C@H](c1cc(F)ccc1F)C(F)F (single isomer, unassigned) : is its EC50 strictly below 80 nM?
[reply] TRUE

[ask] Decide: EC50 of Cc1cccc2c(C(C)(C)NC(=O)C[C@H]3CCCCN3C)nccc12 (single isomer, unassigned) strictly below 80 nM?
[reply] TRUE

[ask] Find out if reported EC50 for "CN1CCC[C@H]1CC(=O)NC(C)(C)COc1nccc2ccoc12" is less than 80 nM
[reply] FALSE
